I'd appreciate it if you could supply log10 IC50 values for the items below.
target: STAT3 (Homo sapiens, UniProt P40763); construct: plasmid pSTAT3-TA-luc), which contains a stably operating STAT3 promoter; endogenous in cells; assay: STAT3 reporter gene assay (luciferase), LNCaP stable cell line (pSTAT3-TA-luc), IL-6 stimulation; type: cell-based
Sequence (P40763 whole entry): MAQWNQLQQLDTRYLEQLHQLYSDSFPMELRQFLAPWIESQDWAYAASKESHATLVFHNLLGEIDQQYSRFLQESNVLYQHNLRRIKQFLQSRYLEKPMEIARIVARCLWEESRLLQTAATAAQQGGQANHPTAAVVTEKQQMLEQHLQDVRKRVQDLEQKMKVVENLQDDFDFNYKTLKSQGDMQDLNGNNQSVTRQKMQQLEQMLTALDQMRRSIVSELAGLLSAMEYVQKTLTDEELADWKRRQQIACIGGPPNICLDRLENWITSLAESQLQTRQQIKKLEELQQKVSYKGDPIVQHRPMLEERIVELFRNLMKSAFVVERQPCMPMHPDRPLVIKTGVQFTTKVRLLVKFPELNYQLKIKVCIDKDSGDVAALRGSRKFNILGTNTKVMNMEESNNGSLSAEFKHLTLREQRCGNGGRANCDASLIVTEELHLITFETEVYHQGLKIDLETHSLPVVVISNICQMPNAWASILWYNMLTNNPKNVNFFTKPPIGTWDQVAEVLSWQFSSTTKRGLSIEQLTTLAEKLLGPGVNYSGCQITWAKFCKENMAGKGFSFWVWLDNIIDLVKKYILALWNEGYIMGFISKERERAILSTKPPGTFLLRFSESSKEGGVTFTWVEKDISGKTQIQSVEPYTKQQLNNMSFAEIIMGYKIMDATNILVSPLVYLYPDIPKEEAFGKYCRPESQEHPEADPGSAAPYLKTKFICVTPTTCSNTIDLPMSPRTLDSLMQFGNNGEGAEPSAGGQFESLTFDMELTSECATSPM
The common logarithm of IC50 in µM is what is listed.

Previously resolved entries follow.
1) COCCS(=O)(=O)Nc1cc2cc(C(=O)Nc3cc(Cl)cc(C(C)(C)c4ccc(Cl)cc4)c3)sc2cc1Cl
-2.15
2) CS(=O)(=O)Nc1ccc2cc(C(=O)Nc3cc(-c4ccc(F)cc4F)cc(C(F)(F)F)c3)[nH]c2c1
0.56
3) COC(=O)c1ccc(Cl)c(-c2cccc(NC(=O)c3cc4ccc(NS(C)(=O)=O)cc4[nH]3)c2)c1
0.49
4) CC(C)(C)OC(=O)N1CCN(Cc2cccc(C(C)(C)c3cc(Br)cc(NC(=O)c4cc5cc(NS(C)(=O)=O)ccc5s4)c3)c2)CC1
-1.28
5) CC(C)(c1cc(Cl)cc(NC(=O)c2cc3cc(NS(C)(=O)=O)ccc3s2)c1)c1ccc[nH]1
-0.51

For every record below, what is its log10 IC50?
1. CC(C)Oc1cc(OC(F)(F)F)cc(C(C)(C)c2cc(Cl)cc(NC(=O)c3cc4nc(NS(C)(=O)=O)ccc4s3)c2)c1
2. CC(C)Oc1cc(OC(F)(F)F)cc(C(C)(C)c2cc(Cl)cc(N(C)C(=O)c3cc4cc(N(C)S(C)(=O)=O)c(F)cc4s3)c2)c1
3. CC(C)(Oc1cccc(C(C)(C)c2cc(Br)cc(NC(=O)c3cc4cc(NS(C)(=O)=O)ccc4s3)c2)c1)C(N)=O
4. CS(=O)(=O)Nc1ccc2sc(C(=O)Nc3cc(Cl)cc(Oc4cc(Cl)cc(C#N)c4)c3)cc2c1

Result:
[-1.17, -0.42, 0.11, -0.60]

---

tested on: HEL92.1.7; assay: Cell growth inhibition assay, blood cancer cell line HEL92.1.7; assay type: cell-based; settings: Homo sapiens, HEL 92.1.7, HEL92.1.7 blood cancer cell line
I'd appreciate it if you could supply IC50 values for the items below.
Give bare numbers, in µM.

Previously resolved entries follow.
1) COc1cc(OC(F)(F)F)cc(C(C)(C)c2cc(Cl)cc(NC(=O)c3cc4cc(NS(C)(=O)=O)ccc4s3)c2)c1 [Example 42]
0.044
2) CCOc1cc(OC(F)(F)F)cc(C(C)(C)c2cc(Cl)cc(NC(=O)c3cc4cc(NS(C)(=O)=O)ccc4s3)c2)c1 [Example 58]
0.074

Task: Assign IC50 to the following record: COCCS(=O)(=O)Nc1ccc2sc(C(=O)Nc3cc(Cl)cc(C(C)(C)c4cc(OC(C)C)cc(OC(F)(F)F)c4)c3)cc2c1 [Example 195]
Result: 0.029

---

tested on: HEL92.1.7; assay: Cell growth inhibition assay, blood cancer cell line HEL92.1.7; assay type: cell-based; details: Homo sapiens, HEL 92.1.7, HEL92.1.7 blood cancer cell line
# strict inequality: IC50 < 0.3 µM yields True, everything else yields False

Task: Confirm or reject: IC50 of "CC(C)(c1cc[nH]c1)c1cc(Cl)cc(NC(=O)c2cc3cc(NS(C)(=O)=O)ccc3s2)c1" lies strictly below 0.3 µM
Result: False

Task: Confirm or reject: IC50 of "CC(C)(c1cc(Cl)cc(NC(=O)c2cc3cc(NS(C)(=O)=O)ccc3s2)c1)n1cnccc1=O" lies strictly below 0.3 µM
Result: False

Task: Confirm or reject: IC50 of "CC(C)(c1cc(Br)cc(NC(=O)c2cc3cc(NS(C)(=O)=O)ccc3s2)c1)c1ccc(F)cc1F" lies strictly below 0.3 µM
Result: True

Task: Confirm or reject: IC50 of "CN(c1cc2cc(C(=O)Nc3cc(Cl)cc(C(C)(C)c4ccc(Cl)cc4)c3)sc2cc1F)S(C)(=O)=O" lies strictly below 0.3 µM
Result: True

Task: Confirm or reject: IC50 of "CC(C)Oc1cc(OC(F)(F)F)cc(C(C)(C)c2cc(Cl)cc(NC(=O)c3cc4nc(NS(C)(=O)=O)cnc4s3)c2)c1" lies strictly below 0.3 µM
Result: False

Task: Confirm or reject: IC50 of "CS(=O)(=O)Nc1ccc2sc(C(=O)Nc3cc(Cl)cc(-c4ccc(F)cc4F)c3)cc2c1" lies strictly below 0.3 µM
Result: True

Task: Confirm or reject: IC50 of "CN(c1ccc2cc(C(=O)Nc3cccc(-c4ccccc4C(F)(F)F)c3)[nH]c2c1)S(C)(=O)=O" lies strictly below 0.3 µM
Result: False

Task: Confirm or reject: IC50 of "Cn1cccc1C(C)(C)c1cc(Cl)cc(NC(=O)c2cc3cc(NS(C)(=O)=O)ccc3s2)c1" lies strictly below 0.3 µM
Result: True
